- Tested Target: PERK (Homo sapiens (Human), UniProt Q9NZJ5)
- Sequence (Q9NZJ5 30-1116): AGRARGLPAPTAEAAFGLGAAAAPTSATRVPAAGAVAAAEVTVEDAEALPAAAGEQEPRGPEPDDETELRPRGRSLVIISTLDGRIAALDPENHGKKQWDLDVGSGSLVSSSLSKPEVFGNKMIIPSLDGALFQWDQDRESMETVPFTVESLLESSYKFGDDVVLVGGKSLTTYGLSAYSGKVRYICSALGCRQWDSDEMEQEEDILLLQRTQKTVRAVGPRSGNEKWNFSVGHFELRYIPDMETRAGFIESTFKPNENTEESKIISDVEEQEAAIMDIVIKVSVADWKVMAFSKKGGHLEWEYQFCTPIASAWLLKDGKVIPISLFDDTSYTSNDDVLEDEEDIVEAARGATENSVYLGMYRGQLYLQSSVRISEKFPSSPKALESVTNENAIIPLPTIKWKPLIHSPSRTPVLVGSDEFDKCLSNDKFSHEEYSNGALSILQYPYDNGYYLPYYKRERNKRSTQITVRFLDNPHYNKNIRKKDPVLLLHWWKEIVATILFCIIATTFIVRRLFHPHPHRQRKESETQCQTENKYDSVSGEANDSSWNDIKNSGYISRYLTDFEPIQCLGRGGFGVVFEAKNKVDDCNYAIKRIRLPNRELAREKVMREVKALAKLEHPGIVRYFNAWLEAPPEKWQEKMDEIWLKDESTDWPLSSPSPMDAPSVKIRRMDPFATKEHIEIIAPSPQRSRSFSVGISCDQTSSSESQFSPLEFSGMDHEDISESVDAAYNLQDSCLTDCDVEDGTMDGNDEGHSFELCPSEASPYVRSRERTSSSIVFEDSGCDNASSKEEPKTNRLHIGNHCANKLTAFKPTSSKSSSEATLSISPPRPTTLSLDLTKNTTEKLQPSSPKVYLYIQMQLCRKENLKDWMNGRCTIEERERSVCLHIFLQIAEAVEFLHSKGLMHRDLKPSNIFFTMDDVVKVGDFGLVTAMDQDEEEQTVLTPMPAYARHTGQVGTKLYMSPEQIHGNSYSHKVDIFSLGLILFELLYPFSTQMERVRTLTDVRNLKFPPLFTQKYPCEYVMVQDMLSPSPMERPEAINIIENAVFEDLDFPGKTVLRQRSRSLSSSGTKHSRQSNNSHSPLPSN
- Test Protocol: PERK cellular assay (TR-FRET, HEK293-EGFP-eIF2α cells, tunicamycin-induced ER stress)
- Type: cell-based
- Experimental Context: tunicamycin 2 hours, read-out: Cellular IC50 (μM) (EIF2a)
Measured IC50 values are reported for all entries that follow.

Compound: Cc1cc(NC(=O)C(O)c2cccc3c2OCC3)ccc1-c1cnc(N)c(C(=O)NC(C)C)c1 (centres unmarked) [Example 75]
Tested Target: PERK (Homo sapiens (Human), UniProt Q9NZJ5)
Reported Metric: IC50
Reported Measurement: 1 to 2 µM
//
Compound: Cc1cccc(C(O)C(=O)Nc2ccc(-c3cnc(N)c(C(=O)NC(C)C)c3)c(Cl)c2)c1 (centres unmarked) [Example 93]
Tested Target: PERK (Homo sapiens (Human), UniProt Q9NZJ5)
Reported Metric: IC50
Reported Measurement: 0.101 to 0.25 µM
//
Compound: COc1ccccc1CC(=O)Nc1ccc(-c2cnc(N)c(C(=O)NC(C)C)c2)c(C)c1
Tested Target: PERK (Homo sapiens (Human), UniProt Q9NZJ5)
Reported Metric: IC50
Reported Measurement: 2 to 3 µM
//
Compound: Cc1cc(NC(=O)Cc2cc(F)cc(F)c2)ccc1-c1cnc(N)c(C(=O)NC(C)C)c1
Tested Target: PERK (Homo sapiens (Human), UniProt Q9NZJ5)
Reported Metric: IC50
Reported Measurement: 0.101 to 0.25 µM
//
Compound: Nc1ncc(-c2ccc(NC(=O)C(O)c3cc(F)cc(F)c3)cc2Cl)nc1C(=O)NCC(F)(F)F (centres unmarked) [Example 165]
Tested Target: PERK (Homo sapiens (Human), UniProt Q9NZJ5)
Reported Metric: IC50
Reported Measurement: 0.026 to 0.05 µM
//
Compound: Cc1cc(NC(=O)C(O)c2cc(F)cc(F)c2)ccc1-c1cncc(C(=O)NC(C)C)c1 (centres unmarked) [Example 179]
Tested Target: PERK (Homo sapiens (Human), UniProt Q9NZJ5)
Reported Metric: IC50
Reported Measurement: 0.501 to 1 µM

Qu. Identify IC50 associated with the compound Cc1ccc(-c2ccc(NC(=O)C(O)c3cc(F)cc(F)c3)cc2C)cn1 (centres unmarked) [Example 180]
Ans. > 5 µM

Qu. Look up and report measured IC50 for this entry: Cc1cc(NC(=O)C(O)c2cc(F)cc(F)c2)ccc1-c1cnc(N)c(C(=O)NC2COC2)n1 (centres unmarked) [Example 143]
Ans. 0.026 to 0.05 µM

----------
Quick reference: IC50 of the listed items.
- Tested Target: PERK (Homo sapiens (Human), UniProt Q9NZJ5)
- Test Protocol: PERK cellular assay (TR-FRET, HEK293-EGFP-eIF2α cells, tunicamycin-induced ER stress)
- Format: cell-based
- Experimental Context: tunicamycin 2 hours, read-out: Cellular IC50 (μM) (EIF2a)

Molecule: CC(C)NC(=O)c1cc(-c2ccc(NC(=O)C(O)c3cc(F)cc(F)c3)cc2F)cnc1N (stereo not shown) [Example 33]
IC50: 0.251 to 0.5 µM

Molecule: CCc1cc(NC(=O)C(O)c2cc(F)cc(F)c2)ccc1-c1cnc(N)c(C(=O)NC(C)C)c1 (single isomer, unassigned) [Example 39]
IC50: 0.101 to 0.25 µM

Molecule: CCc1cc(NC(=O)C(O)c2cccc(C)c2)ccc1-c1cnc(N)c(C(=O)NC(C)C)n1 (stereo not shown) [Example 160]
IC50: 0.001 to 0.025 µM

Molecule: Cc1cc(NC(=O)C(O)c2cc(F)cc(F)c2)ccc1-c1cnc(N)c(C(=O)N(C)C)c1 (stereo not shown) [Example 23]
IC50: > 5 µM

Molecule: Nc1ncc(-c2ccc(NC(=O)C(O)c3cc(F)cc(F)c3)cc2Cl)nc1C(=O)NC1CC1 (stereo not shown) [Example 166]
IC50: 0.026 to 0.05 µM

Qu. Please supply the value of reported IC50 for the item Cc1cc(NC(=O)Cc2ccccc2F)ccc1-c1cnc(N)c(C(=O)NC(C)C)c1 [Example 189]
Ans. 0.501 to 1 µM

Qu. Identify measured IC50 corresponding to CNc1ncc(-c2ccc(NC(=O)C(O)c3cc(F)cc(F)c3)cc2C)cc1C(=O)NC(C)C (stereo not shown) [Example 174]
Ans. 4 to 5 µM

----------
- Tested Target: EIF2AK3 (PERK) catalytic domain (amino acids 536-1116) (Homo sapiens (Human), UniProt Q9NZJ5)
- Test Protocol: PERK in vitro activity assay (isolated), TR-FRET kinase assay
- Experimental Context: isolated PERK enzyme, 1.5 μM ATP, GFP-eIF2a substrate; read-out: Biochemical IC50
pIC50: −log10 of the molar value.
Collected pIC50 values appear next to each entry.

Some solved entries appear below for comparison.
Molecule: CCc1cc(NC(=O)C(O)c2cccc(Cl)c2)ccc1-c1cnc(N)c(C(=O)NC(C)C)c1 (single isomer, unassigned) [Example 109]
Reported Measurement: 7.00 to 7.29
--
Molecule: Cc1cc(NC(=O)C(O)c2cc(F)cc(F)c2)ccc1-c1cnc(N)c(C(=O)NC2CN(C)C2)c1 (centres unmarked) [Example 46]
Reported Measurement: 7.60 to 9.00
--
Molecule: Cc1cc(NC(=O)CC2CCC2)ccc1-c1cnc(N)c(C(=O)NC(C)C)c1 [Example 214]
Reported Measurement: 6.30 to 6.60
--
Molecule: Cc1cc(NC(=O)C(O)c2cc(F)cc(F)c2)ccc1-c1ccc(N)nc1 (centres unmarked) [Example 170]
Reported Measurement: 7.00 to 7.29
--
Molecule: Nc1ncc(-c2ccc(NC(=O)C(O)c3cc(F)cc(F)c3)cc2Cl)nc1C(=O)NCC(F)(F)F (centres unmarked) [Example 165]
Reported Measurement: 7.00 to 7.29
--
Molecule: Cc1cc(NC(=O)C(O)c2cccc3cnn(C)c23)ccc1-c1cnc(N)c(C(=O)NC(C)C)c1 (centres unmarked) [Example 77]
Reported Measurement: 6.00 to 6.30
--
Molecule: CCc1cc(NC(=O)C(O)c2cc(F)cc(F)c2)ccc1-c1cnc(N)c(C(=O)NC2CC2)c1 (centres unmarked) [Example 103]
Reported Measurement: 7.30 to 7.59

Please find the next molecule below.
Qu. Consider the molecule CCNC(=O)c1cc(-c2ccc(NC(=O)C(O)c3cc(F)cc(F)c3)cc2Cl)cnc1N (centres unmarked) [Example 83] . State its measured pIC50.
Ans. 7.60 to 9.00

----------
- Tested Target: PERK (Homo sapiens (Human), UniProt Q9NZJ5)
- Test Protocol: PERK cellular assay (TR-FRET, HEK293-EGFP-eIF2α cells, tunicamycin-induced ER stress)
- Format: cell-based
- Experimental Context: tunicamycin 2 hours, read-out: Cellular IC50 (μM) (EIF2a)
IC50 by entry:

Compound: CCc1cc(NC(=O)C(O)c2cc(F)cc(F)c2)ccc1-c1cnc(N)c(C(=O)NC(C)C)n1 (stereo not drawn) [Example 151]
IC50: 0.026 to 0.05 µM
--
Compound: Nc1ncc(-c2ccc(NC(=O)C(O)c3cc(F)cc(F)c3)cc2Cl)cc1C(=O)NCC(F)(F)F (stereo not drawn) [Example 87]
IC50: 0.101 to 0.25 µM
--
Compound: Cc1cc(NC(=O)C(O)c2cc(F)cc(F)c2)ccc1-c1cnc(N)c(C(=O)NC(C)C)n1 (stereo not drawn) [Example 134]
IC50: 0.026 to 0.05 µM
--
Compound: Cc1cc(NC(=O)Cc2ccc(Cl)cc2)ccc1-c1cnc(N)c(C(=O)NC(C)C)c1 [Example 200]
IC50: 0.501 to 1 µM
--
Compound: Cc1cc(NC(=O)C(O)c2cc(F)cc(F)c2)ccc1-c1cnc(N)c(C(=O)NCCO)c1 (stereo not drawn) [Example 56]
IC50: 0.251 to 0.5 µM
--
Compound: Cc1cc(NC(=O)C(N)c2ccccc2)ccc1-c1cnc(N)c(C(=O)NC(C)C)c1 (stereo not drawn) [Example 7]
IC50: > 5 µM

Qu. Answer with the recorded IC50 of Cc1cc(NC(=O)C(O)c2cc(F)cc(F)c2)ccc1-c1cnc(N)c(C(=O)NC(C)C)c1 (stereo not drawn) [Example 9] only.
Ans. 0.101 to 0.25 µM

Qu. Supply measured IC50 of Cc1cc(NC(=O)Oc2ccccc2)ccc1-c1cnc(N)c(C(=O)NC(C)C)c1 [Example 219] in your reply.
Ans. 1 to 2 µM

Qu. Answer with the recorded IC50 of CCc1cccc(C(O)C(=O)Nc2ccc(-c3cnc(N)c(C(=O)NC(C)C)c3)c(Cl)c2)c1 (stereo not drawn) [Example 94] only.
Ans. 0.001 to 0.025 µM

Qu. Note down IC50 recorded for Cc1cc(NC(=O)C(O)c2cc(F)cc(F)c2)ccc1-c1cnc(N)c(C(=O)NCC(F)(F)F)c1 (single isomer, unassigned) [Example 19]
Ans. 0.101 to 0.25 µM

Qu. Report IC50, nothing else, for this compound: CCc1cc(NC(=O)C(O)c2cccc(Cl)c2)ccc1-c1cnc(N)c(C(=O)NC(C)C)c1 (single isomer, unassigned) [Example 108]
Ans. 0.001 to 0.025 µM

Qu. Provide one value: measured IC50 of CCc1cc(NC(=O)C(O)c2ccccc2C)ccc1-c1cnc(N)c(C(=O)NC(C)C)c1 (single isomer, unassigned) [Example 105]
Ans. 0.501 to 1 µM

Qu. Supply reported IC50 belonging to this compound: CNC(=O)c1nc(-c2ccc(NC(=O)C(O)c3cc(F)cc(F)c3)cc2C)cnc1N (stereo not drawn) [Example 135]
Ans. 0.026 to 0.05 µM

Qu. Note down IC50 recorded for Cc1cc(NC(=O)C(O)c2cc(F)cc(F)c2)ccc1-c1cnc(N)c(C(=O)NC2CN(C)C2)c1 (stereo not drawn) [Example 47]
Ans. 1 to 2 µM

Qu. Look up and report measured IC50 for this entry: Cc1cc(NC(=O)Cc2ccccc2Cl)ccc1-c1cnc(N)c(C(=O)NC(C)C)c1 [Example 198]
Ans. 0.501 to 1 µM
